- system-name: Neuropeptide FF receptor 2 (Homo sapiens)
- Sequence (Q9Y5X5 whole entry): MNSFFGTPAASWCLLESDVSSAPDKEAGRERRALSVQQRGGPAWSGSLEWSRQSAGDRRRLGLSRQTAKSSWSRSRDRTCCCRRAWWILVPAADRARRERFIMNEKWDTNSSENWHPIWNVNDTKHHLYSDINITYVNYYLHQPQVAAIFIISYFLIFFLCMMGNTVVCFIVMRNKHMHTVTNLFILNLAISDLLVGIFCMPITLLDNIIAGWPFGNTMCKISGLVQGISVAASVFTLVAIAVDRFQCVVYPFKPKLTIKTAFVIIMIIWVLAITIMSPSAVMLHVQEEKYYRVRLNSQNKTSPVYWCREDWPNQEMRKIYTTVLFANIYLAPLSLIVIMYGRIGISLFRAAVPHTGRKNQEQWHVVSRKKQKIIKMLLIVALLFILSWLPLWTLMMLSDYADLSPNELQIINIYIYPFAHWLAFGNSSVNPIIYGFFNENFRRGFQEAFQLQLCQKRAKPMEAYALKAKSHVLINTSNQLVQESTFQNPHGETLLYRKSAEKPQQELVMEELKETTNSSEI
- experimental-details: Antagonist activity at human NPFFR2 expressed in CHO cell membrane assessed as inhibition of NPVF induced cAMP response at 5 uM incubated for 1 hr by Topcount counting method relative to control
- Assay type: functional, cell membranes
- Set-up: scale not given: the % may be the effect or the level left
- measurement-setup: filed as antagonist
Numbered stars: 1 amine (or outer) side, 2 acyl side, 3 side chain; on linkers, the order of the positions; unused ones are H or OH. Square brackets hold non-standard residues; d marks the D form. Peptide text beside a SMILES is read from it. * marks the point of attachment. Nva(5-(4-Bn-piperidin-1-yl)) = N[C@@H](CCCN1CCC(Cc2ccccc2)CC1)C(=O)O; X2 = O=C1[C@@H](N[*:1])Cc2ccccc2CN1CCCC(=O)[*:2]; X1 = O=C1[C@@H](N[*:1])Cc2ccccc2CN1CCC(=O)[*:2]; Dmt = Cc1cc(O)cc(C)c1C[C@H](N)C(=O)O; Nicotinoyl = O=C(c1cccnc1)*; dNMeA = CN[C@H](C)C(=O)O
property-label: Activity (%)

| molecule | property-label | measurement-units | observed-result |
| --- | --- | --- | --- |
| Cc1cc(O)cc(C)c1C[C@H](N)C(=O)N(C)[C@H](C)C(=O)N[C@H]1Cc2ccccc2CN(CCC(=O)N[C@@H](CCCN2CCC(Cc3ccccc3)CC2)C(=O)N[C@@H](Cc2ccccc2)C(N)=O)C1=O (H-[Dmt][dNMeA][X1][Nva(5-(4-Bn-piperidin-1-yl))]F-NH2) | Activity | % | 45 |
| Cc1cc(O)cc(C)c1C[C@H](N)C(=O)N[C@H](CCCNC(=N)N)C(=O)N[C@H]1Cc2c(ccc3ccccc23)CN(CC(=O)N[C@@H](CCCN2CCC(Cc3ccccc3)CC2)C(=O)N[C@@H](Cc2ccccc2)C(N)=O)C1=O | Activity | % | 91 |
| Cc1cc(O)cc(C)c1C[C@H](N)C(=O)N[C@H](CCCNC(=N)N)C(=O)N[C@H]1Cc2ccccc2CN(CCC(=O)N[C@@H](CCCN2CCC(Cc3ccccc3)CC2)C(=O)N[C@@H](Cc2ccccc2)C(N)=O)C1=O | Activity | % | 54 |
| Cc1cc(O)cc(C)c1C[C@H](N)C(=O)N1CCC[C@@H]1C(=O)N[C@H]1Cc2ccccc2CN(CCC(=O)N[C@@H](CCCN2CCC(Cc3ccccc3)CC2)C(=O)N[C@@H](Cc2ccccc2)C(N)=O)C1=O (H-[Dmt][dP][X1][Nva(5-(4-Bn-piperidin-1-yl))]F-NH2) | Activity | % | 46 |
| Cc1cc(O)cc(C)c1C[C@H](N)C(=O)N(C)[C@H](C)C(=O)N[C@H]1Cc2c(ccc3ccccc23)CN(CCC(=O)N[C@@H](CCCN2CCC(Cc3ccccc3)CC2)C(=O)N[C@@H](Cc2ccccc2)C(N)=O)C1=O | Activity | % | 83 |
| Cc1cc(O)cc(C)c1C[C@H](N)C(=O)N[C@H](CCCNC(=N)N)C(=O)N[C@H]1Cc2c(ccc3ccccc23)CN(CC(=O)N[C@@H](CCCN2CCC(Cc3ccccc3)CC2)C(=O)N[C@@H](Cc2c[nH]c3ccccc23)C(N)=O)C1=O | Activity | % | 83 |
| Cc1cc(O)cc(C)c1C[C@H](N)C(=O)N[C@H](CCCNC(=N)N)C(=O)N[C@H]1Cc2c(ccc3ccccc23)CN(CC(=O)N[C@@H](CCCN2CCC(Cc3ccccc3)CC2)C(=O)N[C@H](C(N)=O)C(C)C)C1=O | Activity | % | 77 |
| Cc1cc(O)cc(C)c1C[C@H](NC(=N)N)C(=O)N[C@H](CCCNC(=N)N)C(=O)N[C@H]1Cc2ccccc2CN(CCC(=O)N[C@@H](CCCN2CCC(Cc3ccccc3)CC2)C(=O)N[C@@H](Cc2ccccc2)C(N)=O)C1=O | Activity | % | 71 |
| Cc1cc(O)cc(C)c1C[C@H](N)C(=O)N(C)[C@H](C)C(=O)N[C@H]1Cc2c(ccc3ccccc23)CN(CC(=O)N[C@@H](CCCN2CCC(Cc3ccccc3)CC2)C(=O)N[C@@H](Cc2ccccc2)C(N)=O)C1=O | Activity | % | 80 |
| Cc1cc(O)cc(C)c1C[C@H](N)C(=O)N(C)[C@H](C)C(=O)N[C@H]1Cc2ccccc2CN(CCCC(=O)N[C@@H](CCCN2CCC(Cc3ccccc3)CC2)C(=O)N[C@@H](Cc2ccccc2)C(N)=O)C1=O (H-[Dmt][dNMeA][X2][Nva(5-(4-Bn-piperidin-1-yl))]F-NH2) | Activity | % | 49 |
| Cc1cc(O)cc(C)c1C[C@H](N)C(=O)N[C@H](CCCCNC(=O)c1cccnc1)C(=O)N[C@H]1Cc2ccccc2CN(CCC(=O)N[C@@H](CCCN2CCC(Cc3ccccc3)CC2)C(=O)N[C@@H](Cc2ccccc2)C(N)=O)C1=O (H-[Dmt][dK](Nicotinoyl)[X1][Nva(5-(4-Bn-piperidin-1-yl))]F-NH2) | Activity | % | 59 |
